Provenance of the data: ChEMBL document CHEMBL3885881

# Species on record: Rattus norvegicus
# Experimental details: DrugMatrix - Regimen: Daily Repeat
# Format: toxicity, organism-based, Sprague-Dawley
# Design: regimen Daily Repeat, gender Male, age 6-8 weeks
# Measurement setup: in vivo, po, 0 mg/kg, 120 h, tissue Blood, route oral GAVAGE, dose level Control, time 5 day, vehicle .5 % CMC
Readout name: HEMOGLOBIN (G/DL)
Entry rule: numbers only, all in G/DL.

Worked set:
# Molecule, Obs value
rows = [
    ("CCOP(=S)(OCC)Oc1nc(Cl)c(Cl)cc1Cl", 13.78),
    ("CC1CC(OC(=O)C(O)c2ccccc2)CC(C)(C)C1 (centres undefined) [CYCLANDELATE]", 14.82),
    ("CN1CCN(CCCN2c3ccccc3Sc3ccc(Cl)cc32)CC1", 14.08),
    ("COc1nc(C)nc(Cl)c1N=C1NCCN1", 14.15),
]

Request: Supply recorded HEMOGLOBIN for O=C(CCCN1CC=C(n2c(=O)[nH]c3ccccc32)CC1)c1ccc(F)cc1 here.
Response: 13.98

Request: Supply recorded HEMOGLOBIN for CCCCc1oc2ccccc2c1C(=O)c1cc(I)c(OCCN(CC)CC)c(I)c1 here.
Response: 15.83

Request: Supply recorded HEMOGLOBIN for C1CCC(C(CC2CCCCN2)C2CCCCC2)CC1 (centres undefined) here.
Response: 14.26

Request: Supply recorded HEMOGLOBIN for ClC(Cl)Br here.
Response: 12.07

Request: Supply recorded HEMOGLOBIN for CCCN1C[C@H](CSC)C[C@@H]2c3cccc4[nH]cc(c34)C[C@H]21 [PERGOLIDE] here.
Response: 13.65

====

# Organism: Rattus norvegicus
# Experimental details: DrugMatrix - Regimen: Daily Repeat
# Type: toxicity, organism-based, Sprague-Dawley
# Set-up: regimen Daily Repeat, gender Male, age 6-8 weeks
# Measurement setup: in vivo, iv, 0 mg/kg, 72 h, tissue Plasma, dose level Control, time 3 day, vehicle 100 % SALINE
Starred links: 1 amine or outer side, 2 acyl side, 3 side chain; linkers in the order of their positions; H or OH if unused. Positions of bridges follow the written chain, without caps; N, C: chain ends. Non-standard residues stand in square brackets, D forms with d. Residues, ends and D or L forms follow the SMILES beside them. Chains are numbered I, II in the order given. Actinocin(9to1) = Cc1c2oc3c(C)ccc(C(=O)[*:1])c3nc-2c(C(=O)[*:2])c(N)c1=O; NMeV = CN[C@H](C(=O)O)C(C)C; Sar = CNCC(=O)O
Items are presented alongside their recorded ALBUMIN.
Entry rule: numbers only, all in G/DL.

# Compound, ALBUMIN / G/DL
data = [
    ("COc1cc2c3cc1Oc1cc(ccc1O)C[C@@H]1c4c(cc(OC)c(O)c4Oc4ccc(cc4)C[C@@H]3N(C)CC2)CC[N+]1(C)C.[Cl-]", 4.08),
    ("CC[C@]1(O)C[C@H]2CN(CCc3c([nH]c4ccccc34)[C@@](C(=O)OC)(c3cc4c(cc3OC)N(C=O)[C@H]3[C@@](O)(C(=O)OC)[C@H](OC(C)=O)[C@]5(CC)C=CCN6CC[C@]43[C@@H]65)C2)C1 [VINCRISTINE]", 3.97),
    ("Cc1ccc(N(CC2=NCCN2)c2cccc(O)c2)cc1 [PHENTOLAMINE]", 4.37),
]

Read the next record carefully.
Request: Supply recorded ALBUMIN for Cc1c2oc3c(C)ccc(C(=O)N[C@@H]4C(=O)N[C@H](C(C)C)C(=O)N5CCC[C@H]5C(=O)N(C)CC(=O)N(C)[C@@H](C(C)C)C(=O)O[C@@H]4C)c3nc-2c(C(=O)N[C@@H]2C(=O)N[C@H](C(C)C)C(=O)N3CCC[C@H]3C(=O)N(C)CC(=O)N(C)[C@@H](C(C)C)C(=O)O[C@@H]2C)c(N)c1=O [DACTINOMYCIN] (I: T[dV]P[Sar][NMeV] / II: T[dV]P[Sar][NMeV]; ester I:1-I:C, II:1-II:C; linker I:N-II:N via Actinocin(9to1)) here.
Response: 4.15
